Source: paper PMC4902181

Assay: Single dose IV and PO PK in rats
Format: in vivo
Conditions: Sprague-Dawley, rat, plasma, 2 mg/kg
measurement label: clearance (mL/h/kg)
State the answer as a number, implicitly in mL/h/kg.

[ask] Consider the molecule "Cc1cc(C(=O)O)nc(N2C[C@H]3C[C@@H](c4ccccc4C(F)(F)F)C[C@H]3C2)n1" and give its recorded clearance.
[reply] 5.06

* * *

Molecular target: RBP4 (Homo sapiens)
measurement label: IC50 (nM)
State the answer as a number, implicitly in nM.

[ask] Consider the compound O=C(O)c1ccccc1NC(=O)N1C[C@H]2C[C@@H](c3ccccc3C(F)(F)F)C[C@H]2C1 [Compound 4] and give its recorded IC50.
[reply] 72.7

* * *

Assay: Human liver microsomal stability
Assay type: in vitro ADME
Conditions: compound 10 µM, 30 min incubation
measurement label: microsomal stability (% remaining) HLM
State the answer as a number, implicitly in % remaining.

[ask] Consider the compound "Cc1cc(C(=O)O)nc(N2C[C@H]3C[C@@H](c4ccccc4C(F)(F)F)C[C@H]3C2)n1" and give its recorded microsomal stability (% remaining) HLM.
[reply] 94

[ask] Consider the compound "O=C(O)c1ccccc1NC(=O)N1C[C@H]2C[C@@H](c3ccccc3C(F)(F)F)C[C@H]2C1" and give its recorded microsomal stability (% remaining) HLM.
[reply] 100

[ask] Consider the compound "Cc1cc(C(=O)O)nc(N2CCC(c3ccccc3C(F)(F)F)CC2)n1" and give its recorded microsomal stability (% remaining) HLM.
[reply] 68

[ask] Consider the compound "COC(=O)c1cc(C)nc(N2CCN(c3ccccc3C(F)(F)F)CC2)n1" and give its recorded microsomal stability (% remaining) HLM.
[reply] 0.0

[ask] Consider the compound O=C(O)c1ccccc1NC(=O)N1CCC(c2ccccc2C(F)(F)F)CC1 [Compound 3, A1120, reference compound] and give its recorded microsomal stability (% remaining) HLM.
[reply] 3

[ask] Consider the compound "Cc1cc(C(=O)O)nc(N2CCN(c3ccccc3C(F)(F)F)CC2)n1" and give its recorded microsomal stability (% remaining) HLM.
[reply] 18

[ask] Consider the compound "COC(=O)c1cc(C)nc(N2C[C@H]3C[C@@H](c4ccccc4C(F)(F)F)C[C@H]3C2)n1" and give its recorded microsomal stability (% remaining) HLM.
[reply] 0.2

[ask] Consider the compound "Cc1cc(C(=O)O)nc(N2C[C@@H]3CN(c4ccccc4C(F)(F)F)C[C@@H]3C2)n1" and give its recorded microsomal stability (% remaining) HLM.
[reply] 80

* * *

Experiment: Rat liver microsomal stability
Assay type: in vitro ADME
Conditions: compound 10 µM, 30 min incubation
measurement label: microsomal stability (% remaining) RLM

[ask] Consider the compound "O=C(O)c1ccccc1NC(=O)N1C[C@H]2C[C@@H](c3ccccc3C(F)(F)F)C[C@H]2C1" and give its recorded microsomal stability (% remaining) RLM.
[reply] 75 % remaining

[ask] Consider the compound O=C(O)c1ccccc1NC(=O)N1CCC(c2ccccc2C(F)(F)F)CC1 [Compound 3, A1120, reference compound] and give its recorded microsomal stability (% remaining) RLM.
[reply] 85 % remaining

[ask] Consider the compound "Cc1cc(C(=O)O)nc(N2C[C@H]3C[C@@H](c4ccccc4C(F)(F)F)C[C@H]3C2)n1" and give its recorded microsomal stability (% remaining) RLM.
[reply] 93 % remaining

[ask] Consider the compound "COC(=O)c1cc(C)nc(N2CCN(c3ccccc3C(F)(F)F)CC2)n1" and give its recorded microsomal stability (% remaining) RLM.
[reply] 0.0 % remaining

[ask] Consider the compound "COC(=O)c1cc(C)nc(N2C[C@H]3C[C@@H](c4ccccc4C(F)(F)F)C[C@H]3C2)n1" and give its recorded microsomal stability (% remaining) RLM.
[reply] 9.8 % remaining

[ask] Consider the compound "Cc1cc(C(=O)O)nc(N2CCC(c3ccccc3C(F)(F)F)CC2)n1" and give its recorded microsomal stability (% remaining) RLM.
[reply] 96 % remaining

[ask] Consider the compound "Cc1cc(C(=O)O)nc(N2C[C@@H]3CN(c4ccccc4C(F)(F)F)C[C@@H]3C2)n1" and give its recorded microsomal stability (% remaining) RLM.
[reply] 76 % remaining

[ask] Consider the compound "Cc1cc(C(=O)O)nc(N2CCN(c3ccccc3C(F)(F)F)CC2)n1" and give its recorded microsomal stability (% remaining) RLM.
[reply] 63 % remaining
